The origin of these recorded values is patent US20110300156A1.

Overview of recorded EC50 of ADCC, Bx-PC3 cells for various binders
- EXPERIMENTAL_TARGET: human tissue factor (TF), membrane-bound on cells (human, UniProt P13726 33-295)
- PROCEDURE_TEXT: cell-based or functional assay
The answer is to be given in nM; state only the numeric part.

Consider the worked cases shown below.
- BINDER: "anti-TF HuMab 013 (antibody, V domains shown, Human monoclonal antibody from HuMab mice; also called HuMab-TF-13) VH: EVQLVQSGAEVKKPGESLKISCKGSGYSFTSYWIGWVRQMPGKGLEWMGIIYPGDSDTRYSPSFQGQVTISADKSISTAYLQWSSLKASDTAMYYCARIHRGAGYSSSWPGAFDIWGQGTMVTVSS VL: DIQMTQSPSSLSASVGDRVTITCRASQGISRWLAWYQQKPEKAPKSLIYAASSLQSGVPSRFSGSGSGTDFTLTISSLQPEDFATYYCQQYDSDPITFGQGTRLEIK"
  ENDPOINT_UNIT: "nM"
  EC50 of ADCC, Bx-PC3 cells: 0.07
- BINDER: "anti-TF HuMab 003 (antibody, V domains shown, Human monoclonal antibody from HuMab mice; also called HuMab-TF-003) VH: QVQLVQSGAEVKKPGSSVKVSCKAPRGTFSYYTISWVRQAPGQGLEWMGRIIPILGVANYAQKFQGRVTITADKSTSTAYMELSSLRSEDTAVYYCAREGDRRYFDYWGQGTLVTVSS VL: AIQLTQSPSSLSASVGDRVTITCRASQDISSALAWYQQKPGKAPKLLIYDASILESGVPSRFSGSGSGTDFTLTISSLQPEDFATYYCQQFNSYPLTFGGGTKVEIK"
  ENDPOINT_UNIT: "nM"
  EC50 of ADCC, Bx-PC3 cells: 0.17
- BINDER: "anti-TF HuMab 098 (antibody, V domains shown, Human monoclonal antibody from HuMab mice; also called HuMab-TF-098; HuMab-TF-98) VH: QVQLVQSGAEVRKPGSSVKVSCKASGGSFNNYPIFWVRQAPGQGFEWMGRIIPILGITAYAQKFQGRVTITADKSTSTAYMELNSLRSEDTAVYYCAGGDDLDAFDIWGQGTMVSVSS VL: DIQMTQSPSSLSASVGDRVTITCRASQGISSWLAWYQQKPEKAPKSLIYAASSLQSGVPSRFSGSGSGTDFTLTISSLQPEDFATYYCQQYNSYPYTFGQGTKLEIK"
  ENDPOINT_UNIT: "nM"
  EC50 of ADCC, Bx-PC3 cells: 0.02

IN: May I ask what EC50 of ADCC, Bx-PC3 cells has been recorded for anti-TF HuMab 025 (antibody, V domains shown, Human monoclonal antibody from HuMab mice) VH: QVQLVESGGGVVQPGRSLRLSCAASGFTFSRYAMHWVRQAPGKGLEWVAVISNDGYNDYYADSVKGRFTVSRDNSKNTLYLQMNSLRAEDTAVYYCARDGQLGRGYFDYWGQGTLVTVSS VL: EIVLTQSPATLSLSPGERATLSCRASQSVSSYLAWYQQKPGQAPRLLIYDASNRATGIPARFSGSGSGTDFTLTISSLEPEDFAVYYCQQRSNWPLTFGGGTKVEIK ?
OUT: 0.15
